molecular target: canine TRPM8 (Canis lupus familiaris); construct: expressed in transfected cells; assay: In vitro canine TRPM8 functional assay (Ca2+-sensitive dye, FLIPR/FDSS, icilin activation); format: cell-based; conditions: HEK293 cells expressing canine TRPM8, icilin activation; eight-point dose-response; read-out: IC50
Field 'label' (enum: y / n). Set to y when IC50 is strictly under 100 nM; else n.

molecule="CC(C)OP(=O)(OC(C)C)C(Cc1cc(F)cc(C(F)(F)F)c1)c1sc2ccccc2c1Cl (racemic) [Cpd 169]" classification=y
molecule="CC(C)OP(=O)(OC(C)C)[C@@H](Cc1ccc(F)c(C(F)(F)F)c1)c1sc2ccccc2c1Br [Cpd 242]" classification=y
molecule="CC(C)OP(=O)(OC(C)C)/C(=C/c1ccc(F)c(F)c1)c1sc2ccccc2c1Br [Cpd 334]" classification=n
molecule="CCOP(=O)(OCC)C(Cc1cccc(C(F)(F)F)c1F)c1sc2ccccc2c1Br (centres unmarked) [Cpd 142]" classification=y
molecule="CCOP(=O)(OCC)C(Cc1cccc(C(F)(F)F)c1F)c1sc2ccccc2c1Cl (racemic) [Cpd 281]" classification=n
molecule="CCOP(=O)(OCC)C(Cc1ccc(F)c(Cl)c1)c1sc2ccccc2c1Br (racemic) [Cpd 244]" classification=y
molecule="COc1c(F)c(F)c(CC(c2sc3ccccc3c2Br)P(=O)(OC(C)C)OC(C)C)c(F)c1F (racemic) [Cpd 161]" classification=y
molecule="CCOP(=O)(OCC)C(Cc1ccccc1)c1cc2ccccc2s1 (centres unmarked) [Cpd 74]" classification=n
molecule="CCOP(=O)(OCC)C(Cc1ccc(C(F)(F)F)cc1F)c1sc2ccccc2c1Br (racemic) [Cpd 150]" classification=y
molecule="CCOP(=O)(OCC)C(Cc1ccc(S(=O)(=O)C(F)(F)F)cc1)c1sc2ccccc2c1Cl (racemic) [Cpd 300]" classification=y
molecule="CCOP(=O)(OCC)C(Cc1cc(C(F)(F)F)cc(C(F)(F)F)c1)c1cc2ccccc2s1 (centres unmarked) [Cpd 96]" classification=n
molecule="COc1ccc(CC(c2sc3ccccc3c2Cl)P(=O)(OC(C)C)OC(C)C)cc1C(F)(F)F (centres unmarked) [Cpd 176]" classification=n
molecule="COc1cccc(CC(c2sc3ccccc3c2Br)P(=O)(OC(C)C)OC(C)C)c1 (centres unmarked) [Cpd 317]" classification=y
molecule="CC(C)OP(=O)(OC(C)C)C(Cc1cccc(C(F)(F)F)c1)c1sc2ccccc2c1Cl (racemic) [Cpd 170]" classification=y
molecule="COc1ccc(CC(c2sc3ccccc3c2Br)P(=O)(OC(C)C)OC(C)C)cc1F (racemic) [Cpd 159]" classification=y
molecule="CC(C)OP(=O)(OC(C)C)C(Cc1cccc(Br)c1)c1sc2ccccc2c1Cl (centres unmarked) [Cpd 182]" classification=y
molecule="CCOP(=O)(OCC)C(Cc1ccccc1F)c1cc2ccccc2s1 (centres unmarked) [Cpd 80]" classification=n

* * *

biological target: canine TRPM8 (Canis lupus familiaris, UniProt Q1A7N1); construct: expressed in transfected cells; experiment: In vitro canine TRPM8 functional assay (Ca2+-sensitive dye, FLIPR/FDSS, icilin activation); format: cell-based; details: 0.5 μM compound; HEK293 cells expressing canine TRPM8, icilin activation
Sequence (Q1A7N1 1-1104): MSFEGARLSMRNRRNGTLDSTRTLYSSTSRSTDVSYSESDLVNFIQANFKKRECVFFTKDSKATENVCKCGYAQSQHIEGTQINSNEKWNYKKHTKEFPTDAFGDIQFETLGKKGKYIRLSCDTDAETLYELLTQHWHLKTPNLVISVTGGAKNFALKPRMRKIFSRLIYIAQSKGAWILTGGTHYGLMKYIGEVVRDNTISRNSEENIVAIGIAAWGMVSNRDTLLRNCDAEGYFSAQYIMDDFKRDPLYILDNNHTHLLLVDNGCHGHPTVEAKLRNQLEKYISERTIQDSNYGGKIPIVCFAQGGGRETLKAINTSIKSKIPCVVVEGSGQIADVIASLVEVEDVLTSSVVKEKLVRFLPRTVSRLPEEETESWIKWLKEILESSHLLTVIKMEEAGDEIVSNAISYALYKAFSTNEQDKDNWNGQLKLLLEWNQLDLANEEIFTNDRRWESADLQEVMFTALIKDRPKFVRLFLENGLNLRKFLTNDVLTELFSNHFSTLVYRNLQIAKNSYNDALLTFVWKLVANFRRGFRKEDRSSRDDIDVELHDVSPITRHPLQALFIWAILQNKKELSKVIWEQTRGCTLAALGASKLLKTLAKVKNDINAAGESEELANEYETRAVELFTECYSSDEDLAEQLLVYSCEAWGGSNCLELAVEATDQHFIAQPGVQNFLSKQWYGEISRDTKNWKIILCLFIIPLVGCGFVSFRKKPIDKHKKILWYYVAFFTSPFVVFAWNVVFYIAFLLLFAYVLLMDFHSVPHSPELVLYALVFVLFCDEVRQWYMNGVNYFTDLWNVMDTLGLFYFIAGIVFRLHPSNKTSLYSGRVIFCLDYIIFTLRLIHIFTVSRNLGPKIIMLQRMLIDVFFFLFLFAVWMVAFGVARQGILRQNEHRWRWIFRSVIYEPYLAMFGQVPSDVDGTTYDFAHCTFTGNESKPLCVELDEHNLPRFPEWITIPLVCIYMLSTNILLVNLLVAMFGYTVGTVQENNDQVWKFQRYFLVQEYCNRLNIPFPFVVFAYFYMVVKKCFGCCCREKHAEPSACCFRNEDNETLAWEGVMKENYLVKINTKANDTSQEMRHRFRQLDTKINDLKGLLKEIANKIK
Quantity: % I (0.5 μM) (%)

compound="CCOP(=O)(OCC)C(Cc1ccc(OC)cc1)c1sc2ccccc2c1Br (stereo not drawn) [Cpd 321]" reported_value=102
compound="CCOP(=O)(OCC)C(Cc1c(F)c(F)c(O)c(F)c1F)c1sc2ccccc2c1Br (racemic) [Cpd 228]" reported_value=94
compound="CC(C)OP(=O)(OC(C)C)C(Cc1cccc(Cl)c1)c1sc2ccccc2c1Br (racemic) [Cpd 166]" reported_value=102
compound="CCOP(=O)(OCC)C(Cc1cc(O)cc(O)c1)c1sc2ccccc2c1Br (stereo not drawn) [Cpd 322]" reported_value=45
compound="CC(C)OP(=O)(OC(C)C)C(Cc1ccc(F)cc1)c1sc2ccccc2c1Br (stereo not drawn) [Cpd 197]" reported_value=102
compound="CC(C)OP(=O)(OC(C)C)C(Cc1cccc(Cl)c1F)c1sc2ccccc2c1Cl (stereo not drawn) [Cpd 185]" reported_value=103

Source: patent US20080287398A1
